tested on: PPARg DBDmut IVT, anti-PPARg (DBD mutation: PPARg1 K132A/R137A, NR concentration 270 nM); test: PBM binding z-score (relative to random genomic background probes); higher = stronger binding; sequences stand for … in GC…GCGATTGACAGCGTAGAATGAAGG
Classes by PBM binding z-score: bin 0 (below -0.5), bin 1 (-0.5 to below 0.4), bin 2 (0.4 or more)

Kindly identify the class of AGAATGAGGTTAAGATCAGGGACACAGAATACAT .
bin 2

Which category fits this record: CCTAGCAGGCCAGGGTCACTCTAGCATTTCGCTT
bin 0

Pick a category. Item: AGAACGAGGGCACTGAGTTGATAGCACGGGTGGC
bin 1

Classify this sequence: CCTATTGGGCCATTCAGAGGTCATTGATCATATG
bin 1

Which of the defined bands does the recorded PBM binding z-score of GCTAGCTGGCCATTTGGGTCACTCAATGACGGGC sit within?
bin 0

Which bin, given its PBM binding z-score, does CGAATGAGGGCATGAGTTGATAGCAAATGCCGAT occupy?
bin 1

Lab log: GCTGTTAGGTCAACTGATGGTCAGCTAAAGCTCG — assign PBM binding z-score category
bin 1

Which bin should I file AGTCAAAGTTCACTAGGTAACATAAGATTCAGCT under?
bin 2

Hello team, could you let me know which band the following sequence falls into: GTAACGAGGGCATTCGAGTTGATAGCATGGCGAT
bin 1

Field: class (PBM binding z-score) — entry: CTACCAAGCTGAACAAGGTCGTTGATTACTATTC
bin 1

Which bin, given its PBM binding z-score, does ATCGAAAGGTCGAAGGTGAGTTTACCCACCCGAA occupy?
bin 2

Textbook exercise: identify the category of the sequence given here, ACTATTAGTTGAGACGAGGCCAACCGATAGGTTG , according to its measured value.
bin 2

Hi there! Could you help me figure out the category for CCTACTGGGCCATCAGGTCATCGATATCAACGTT please?
bin 0

Which category fits this record: ATACCAAGGTGATCGTGAGGTCGTTTATACTAAC
bin 2

Band for the recorded PBM binding z-score of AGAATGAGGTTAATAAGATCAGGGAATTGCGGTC ?
bin 1

# bin lookup: classify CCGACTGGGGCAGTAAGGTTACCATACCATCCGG by its PBM binding z-score
bin 0

Please report the category associated with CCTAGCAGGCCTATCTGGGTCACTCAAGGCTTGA , nothing else.
bin 0

Which category does the recorded PBM binding z-score put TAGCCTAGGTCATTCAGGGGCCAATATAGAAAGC in?
bin 2

Lab log: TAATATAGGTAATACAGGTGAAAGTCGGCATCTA — assign PBM binding z-score category
bin 2

For this sequence, which bin applies? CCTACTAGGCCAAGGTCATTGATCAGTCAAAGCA
bin 1

GET /class?item= AGTCAAAGTTCAGGACGAGGTAGCGTAAAGCACG
bin 0

State the band of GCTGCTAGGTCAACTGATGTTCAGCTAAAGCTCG
bin 0

For the record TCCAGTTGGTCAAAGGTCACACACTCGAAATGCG , report the class its PBM binding z-score corresponds to.
bin 2

Could you tell me which band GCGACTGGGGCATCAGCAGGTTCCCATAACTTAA belongs to?
bin 0

Band of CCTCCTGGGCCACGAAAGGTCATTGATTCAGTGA ?
bin 0

Which class holds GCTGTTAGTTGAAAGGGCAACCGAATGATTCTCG ?
bin 1

---

test system: RXRa homodimer (NR concentration 180 nM); experiment: PBM binding z-score (relative to random genomic background probes); higher = stronger binding; sequences stand for … in GC…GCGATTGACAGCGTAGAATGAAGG
Please enter 1 where PBM binding z-score is greater than or equal to 1, and 0 where it is lower.

# bool: PBM binding z-score of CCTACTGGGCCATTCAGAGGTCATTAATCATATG >= 1
1

Kindly determine if PBM binding z-score recorded for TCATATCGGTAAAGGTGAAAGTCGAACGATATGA is above or exactly 1.
1

Hello, I need to know if AGAATGAGGTTACCAAAGATTAGGGAAACGCTTG has measured PBM binding z-score not below 1. Thanks!
1

Does CAAACTAGGTGACGAAAGGTCAAAGTCGAATGAC have a reported PBM binding z-score of at least 1?
1

API: above_or_equal(metric=PBM binding z-score, cutoff=1) for item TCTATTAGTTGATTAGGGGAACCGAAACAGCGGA
0

Tell me whether PBM binding z-score is at least 1 here: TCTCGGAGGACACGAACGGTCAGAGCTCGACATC
0

Hello, I need to know if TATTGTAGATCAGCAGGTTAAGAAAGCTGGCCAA has measured PBM binding z-score not below 1. Thanks!
0

Check this sequence for PBM binding z-score at or above 1: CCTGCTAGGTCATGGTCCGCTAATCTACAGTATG
1

Please tell me: is the sequence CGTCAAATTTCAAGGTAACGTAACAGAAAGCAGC at or over 1 in terms of PBM binding z-score?
0

hey, is PBM binding z-score for this one >= 1? CCTTACGGGTCACTGCCAGGTTATAGCATTTGGA
1

Item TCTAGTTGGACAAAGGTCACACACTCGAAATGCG with PBM binding z-score of 1 or above?
1

Decide: is the reported value of PBM binding z-score for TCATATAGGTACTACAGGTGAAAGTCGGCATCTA equal to or greater than 1?
0

Check this sequence for PBM binding z-score at or above 1: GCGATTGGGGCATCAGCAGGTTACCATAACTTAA
0

Could you tell me if the measured PBM binding z-score of CCAGACAGGTGCGAAGGTAACTCAGCCTCGATTA reaches 1 or more?
0

Dear colleague, could you confirm whether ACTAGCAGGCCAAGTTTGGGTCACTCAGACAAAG has PBM binding z-score at or above 1?
0

PBM binding z-score >= 1 for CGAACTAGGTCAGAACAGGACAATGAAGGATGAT ?
1

# check: PBM binding z-score of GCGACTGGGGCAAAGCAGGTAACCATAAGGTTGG is greater than or equal to 1
0

Reported PBM binding z-score at or above 1? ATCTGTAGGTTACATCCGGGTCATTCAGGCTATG
1

Say whether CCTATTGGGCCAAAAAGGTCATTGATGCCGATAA shows PBM binding z-score of 1 or more.
1

Given the entry TCATATAGGTAATACAGGTGTAAGTCGGCATCTA , answer whether its PBM binding z-score meets or surpasses 1.
1

Kindly determine if PBM binding z-score recorded for CTCGAAAGGTTGGTTGAGGTGAGTATACGGATAA is above or exactly 1.
0

Answer whether PBM binding z-score of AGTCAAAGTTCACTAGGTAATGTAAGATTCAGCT is greater than or equal to 1.
1

Please tell me: is the sequence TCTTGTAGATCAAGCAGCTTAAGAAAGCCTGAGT at or over 1 in terms of PBM binding z-score?
0

State whether the measured PBM binding z-score reaches 1, counting equality as reaching it, for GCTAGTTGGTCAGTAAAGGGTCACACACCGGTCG
1

Can ACAGACAGGTGAGTGGAGGTAACTCAGCTGGACG be said to have PBM binding z-score at or above 1?
0

Decide: PBM binding z-score of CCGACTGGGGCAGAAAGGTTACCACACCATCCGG >= 1?
1

---

Record form. Attribute: PBM binding z-score. Fill in for each entry.
tested on: VDR homodimer (NR concentration 270 nM); experiment: PBM binding z-score (relative to random genomic background probes); higher = stronger binding; sequences stand for … in GC…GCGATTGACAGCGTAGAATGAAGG
Answer with a bare number; do not write a unit.

The reported PBM binding z-score of the sequence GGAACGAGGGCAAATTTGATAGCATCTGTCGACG was 0.807

Item: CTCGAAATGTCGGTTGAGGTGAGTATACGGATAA | PBM binding z-score: 0.263

Lab note: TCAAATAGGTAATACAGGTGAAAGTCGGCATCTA gave PBM binding z-score of 0.0898

Summary for this sequence, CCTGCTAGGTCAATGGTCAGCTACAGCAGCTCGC : PBM binding z-score is 0.15

Recorded PBM binding z-score (sequence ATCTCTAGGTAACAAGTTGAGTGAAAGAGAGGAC ): 0.639

Lab note: measured PBM binding z-score of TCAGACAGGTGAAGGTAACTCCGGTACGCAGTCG was -0.191

Documented PBM binding z-score of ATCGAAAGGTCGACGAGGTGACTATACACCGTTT : 1.11

Record ATACCAAGGTGATCGTGAGGTCGTTCATACTAAC . Reported PBM binding z-score: 3.68

Entry under test: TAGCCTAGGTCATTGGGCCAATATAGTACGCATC . Its PBM binding z-score was 1.1

The recorded PBM binding z-score for entry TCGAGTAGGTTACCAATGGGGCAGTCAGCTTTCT equals -1.05

Reported PBM binding z-score ( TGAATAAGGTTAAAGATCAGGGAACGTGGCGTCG ) = 0.301

Value of PBM binding z-score reported for the sequence CGAACTAGGTCAGAACAGGACAGTGGAGGATGAT is 0.198

Value of PBM binding z-score reported for the sequence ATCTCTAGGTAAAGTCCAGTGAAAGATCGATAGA is 0.0331

According to the records, this sequence TCATATAGGTAATACAGGGGAAAGTCGGCATCTA displays PBM binding z-score of -0.00129

Please fill in: PBM binding z-score reported for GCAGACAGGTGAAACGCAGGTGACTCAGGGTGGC = -0.391

Record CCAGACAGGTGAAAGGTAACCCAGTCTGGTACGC . Reported PBM binding z-score: -0.223

Kindly note the recorded PBM binding z-score for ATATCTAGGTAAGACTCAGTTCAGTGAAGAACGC , which is 1.41

sequence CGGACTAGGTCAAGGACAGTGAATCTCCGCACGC , PBM binding z-score observed: -0.118

Value of measured PBM binding z-score for the entry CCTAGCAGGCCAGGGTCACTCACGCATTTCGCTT : 1.73

// recorded PBM binding z-score for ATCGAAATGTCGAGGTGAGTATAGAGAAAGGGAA : -0.583

PBM binding z-score for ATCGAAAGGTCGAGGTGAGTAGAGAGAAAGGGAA is 0.405

The value of PBM binding z-score measured for the sequence CCTTGCGGGTCAAGGTTATAGCACGGGTGGTACG turned out to be 1.01

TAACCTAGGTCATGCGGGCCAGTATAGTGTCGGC has a reported PBM binding z-score of 1.05

Item: CGAACTAGGTCATCCAGGGCAGTGAATACATTGA | PBM binding z-score: 2.25

Lab note: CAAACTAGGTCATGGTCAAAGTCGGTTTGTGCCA gave PBM binding z-score of 1.15

Item: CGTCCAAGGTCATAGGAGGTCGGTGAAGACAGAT | PBM binding z-score: 3.77
